# System: EKVX NSCLC
# Test Details: NCI tumour cell line growth inhibition, 48 h; in the data active means GI50 below about 0.43 µM; inactive means the rest
Choose one outcome from this list and give only that: active, inactive

Problem: Which result was noted for this molecule in the test: Cc1cc(C)nc(SC2=C(Nc3cccc(Cl)c3)C(=O)N(Cc3ccccc3)C2=O)n1
Solution: inactive

Problem: Which result was noted for this molecule in the test: CC[C@H](C)C(=O)O[C@H]1CCC=C2C=C[C@H](C)C(CCC3C[C@@H](O)CC(=O)O3)[C@H]21 (some centres undefined)
Solution: inactive

Problem: Which result was noted for this molecule in the test: Cc1ccc(C(=O)NC2CCCCC2)cc1-c1ccc(C(=O)NCC2CC2)cc1
Solution: inactive

Problem: Which result was noted for this molecule in the test: CCCCCCCCCCCCCCCCOCCCOP(=O)(O)C1CCCN(O)C1=O (centres undefined)
Solution: inactive

Problem: Which result was noted for this molecule in the test: O=C1/C(=C/c2ccc(Cl)cc2)CN(C(=O)C(Cl)Cl)C/C1=C\c1ccc(Cl)cc1
Solution: active

Problem: Which result was noted for this molecule in the test: CN1CCN(Cc2ccc(NC(=O)c3cncc(C#Cc4c(N)ncc5cc(F)ccc45)c3)cc2C(F)(F)F)CC1
Solution: inactive

Problem: Which result was noted for this molecule in the test: C/C(=C\c1ccn(-c2ccc(N)cc2)n1)[C@@H]1C[C@@H]2O[C@]2(C)CCC[C@H](C)[C@H](O)[C@@H](C)C(=O)C(C)(C)[C@@H](O)CC(=O)O1
Solution: active

Problem: Which result was noted for this molecule in the test: CCC[CH2][Sn]([CH2]CCC)([S]C1=NCCS1)[S]C1=NCCS1
Solution: inactive

Problem: Which result was noted for this molecule in the test: COC(=O)c1c2c(c(C)[n+]([O-])c1C)C(=O)C(NCc1ccc(F)c(F)c1)=CC2=O
Solution: inactive

====

# Test system: UACC-257 melanoma
# Test Details: NCI tumour cell line growth inhibition, 48 h
Readout: TGI

Problem: Specify TGI for CCC[CH2][Sn]([CH2]CCC)([S]C1=NCCS1)[S]C1=NCCS1 and stop.
Solution: 1.44 µM

Problem: Specify TGI for O=C1c2ccccc2C(=O)c2c(O)c(O)cc(O)c21 and stop.
Solution: > 100 µM

Problem: Specify TGI for CCOC(=O)/C(=C\NC(C)(C)C)c1nc2ccccc2o1 and stop.
Solution: 51.1 µM

Problem: Specify TGI for O=C(O)CCSc1nnc(COc2ccc(Cl)cc2)n1-c1ccccc1 and stop.
Solution: > 100 µM

Problem: Specify TGI for O=C(O)CNCc1c2ccccc2[n+]([O-])c2ccccc12 and stop.
Solution: > 100 µM

Problem: Specify TGI for CO[C@H](c1ccccc1)[C@H](O)[C@](O)(c1ccccc1)P(=O)(OC)OC and stop.
Solution: > 100 µM

====

# System: XF 498 CNS
# Test Details: NCI tumour cell line growth inhibition, 48 h
Readout: TGI

Problem: Report TGI from XF 498 CNS testing of O=C1/C(=C/c2ccccc2)CCCC/C1=C\c1ccccc1
Solution: > 100 µM

Problem: Report TGI from XF 498 CNS testing of CCOC(=O)C1=C(C)N(NC(=O)c2ccccc2)C2(O)CCCC12C(=O)OCC (configuration not stated)
Solution: > 100 µM

Problem: Report TGI from XF 498 CNS testing of COC(=O)C1=CC2OC1(C)C1(CC1)C2=O (configuration not stated)
Solution: 28.1 µM

Problem: Report TGI from XF 498 CNS testing of CSC(=S)NNC(=O)c1ccncc1
Solution: 50 µM

Problem: Report TGI from XF 498 CNS testing of CSC(=N)N1N=C2c3ccccc3CC[C@@H]2[C@@H]1c1ccccc1
Solution: 30.6 µM

Problem: Report TGI from XF 498 CNS testing of COC(=O)C1C(=O)O[C@@H](c2ccc(OC)cc2OC)C1C(=O)OC (some centres not stated)
Solution: > 100 µM

Problem: Report TGI from XF 498 CNS testing of CN(CCO)c1nc2c(c(=O)[nH]1)CNCC2
Solution: > 100 µM

Problem: Report TGI from XF 498 CNS testing of CCN(CC)c1ccc2c(c1)N=C1N=CC=CN1C2(c1ccc(N(C)C)cc1)c1ccc(N(C)C)cc1
Solution: 12.6 µM

Problem: Report TGI from XF 498 CNS testing of O=C(NCC#CCO)C(F)(F)F
Solution: > 100 µM

Problem: Report TGI from XF 498 CNS testing of CSc1sc(=S)sc1SC
Solution: > 100 µM

Problem: Report TGI from XF 498 CNS testing of Cc1cc(C)n(-c2c(O)ccc(O)c2-n2nc(C)cc2C)n1
Solution: > 100 µM

Problem: Report TGI from XF 498 CNS testing of CC12CC3CC(C)(C1)CC(N=[N+]=[N-])(C3)C2
Solution: > 100 µM

====

# Tested on: SK-MEL-28 melanoma
# Test Details: NCI tumour cell line growth inhibition, 48 h
Readout: TGI

Problem: Specify TGI for CC1(C)N=C(N)N=C(N)N1c1cccc(OCc2cccc([N+](=O)[O-])c2)c1 and stop.
Solution: > 100 µM

Problem: Specify TGI for CC(C)N(c1cc2c(cc1F)c(=O)c(C(=O)O)cn2-c1ccc(N2CCN(C)CC2)cn1)C(C)C and stop.
Solution: > 100 µM

Problem: Specify TGI for CO[C@H](C(=O)N[C@@H](CCCCNC(=O)OCc1ccccc1)C(=O)OC(C)(C)C)[C@@H]1Cc2cc3cc(OC4CC(OC5CC(O)C(O)C(C)O5)C(O)C(C)O4)c(C)c(O)c3c(O)c2C(=O)[C@H]1OC1CC(OC2CC(OC3CC(C)(O)C(O)C(C)O3)C(O)C(C)O2)C(O)C(C)O1 (stereo partly specified) and stop.
Solution: 1.87 µM

Problem: Specify TGI for C=C(Cl)C(Br)(CBr)CCC(Br)C(C)(C)Br (stereo unspecified) and stop.
Solution: > 10 µM

Problem: Specify TGI for COC(=O)c1cc(C#N)[nH]c1-c1cccs1 and stop.
Solution: > 100 µM

Problem: Specify TGI for Nc1c(Cl)c([N+](=O)[O-])cc2c1OCCCCO2 and stop.
Solution: > 100 µM

Problem: Specify TGI for CCOC(=O)C1C(c2ccc([N+](=O)[O-])cc2)NC(c2ccc([N+](=O)[O-])cc2)C(C(=O)OC)S1(=O)=O (stereo unspecified) and stop.
Solution: > 100 µM

Problem: Specify TGI for CN1CCC/C1=C1\C(=O)c2cccn2C1=O and stop.
Solution: > 100 µM

Problem: Specify TGI for CNC(=O)CN(CC(N)=O)C(=O)NC and stop.
Solution: > 100 µM

Problem: Specify TGI for CCOC(=O)/C=C1\Nc2ccccc2-n2nnnc21 and stop.
Solution: > 100 µM

Problem: Specify TGI for COc1cccc2c1c1nc3cc(C)c(C)cc3nc1n2CCN(C)C and stop.
Solution: 4.23 µM

Problem: Specify TGI for CCOn1cc(C2=C(c3c[nH]c4ccccc34)C(=O)NC2=O)c2ccccc21 and stop.
Solution: 25.3 µM

Problem: Specify TGI for CC1(C)OC(=O)CC12CCN(Cc1ccccc1)CC2 and stop.
Solution: > 100 µM

Problem: Specify TGI for Cn1cnc2c(NCc3ccccc3)nc(NCCO)nc21 and stop.
Solution: 280 µM

Problem: Specify TGI for COC(=O)c1c(C(=O)OC)c(C(c2ccccc2)c2ccccc2)n(-c2ccccc2)c1Cl and stop.
Solution: > 10 µM

Problem: Specify TGI for CCOC(=O)Oc1cc2c(ccn2C)c2c1c1ccccc1n2C(=O)OCC and stop.
Solution: > 100 µM

Problem: Specify TGI for CN=S(=O)(C[C@]1(O)CC2OC1C1OC(C)(C)OC21)c1ccccc1 (stereo partly specified) and stop.
Solution: > 100 µM

Problem: Specify TGI for O=Cc1ccc2c(c1)CC1(C2)Cc2ccc(C=O)cc2C1 and stop.
Solution: 59.1 µM

Problem: Specify TGI for Cc1cc(C)n(-c2c(O)ccc(O)c2-n2nc(C)cc2C)n1 and stop.
Solution: > 100 µM

Problem: Specify TGI for O=C(CC(=O)C(F)(F)F)c1csc2ccccc12 and stop.
Solution: > 100 µM

Problem: Specify TGI for COC1/C=C\OC2(C)Oc3c(C)c(O)c4c(O)c(c(CN(C)C)c(O)c4c3C2=O)NC(=O)/C(C)=C\C=C/C(C)C(O)C(C)C(O)C(C)C(OC(C)=O)C1C (stereo unspecified) and stop.
Solution: 97.5 µM

Problem: Specify TGI for O=C1CCSc2c(cnc3ccccc23)N1 and stop.
Solution: > 100 µM

Problem: Specify TGI for COC(=O)c1c2c(c(C)[n+]([O-])c1C)C(=O)C(NCc1ccc(F)c(F)c1)=CC2=O and stop.
Solution: 13.8 µM

Problem: Specify TGI for CCCCCCCCCC(=O)OCC1OC(n2cc(F)c(=O)[nH]c2=O)C(N)C(OC(=O)CCCCCCCCC)C1O (stereo unspecified) and stop.
Solution: 30.4 µM

Problem: Specify TGI for N=C(N)C1CN(CC=O)C(=O)NC1=O (stereo unspecified) and stop.
Solution: > 100 µM

Problem: Specify TGI for CCCCCCCCCCCC(=O)OCC1OC(n2cc(F)c(=O)[nH]c2=O)C(N)C(O)C1O (stereo unspecified) and stop.
Solution: > 100 µM

Problem: Specify TGI for C=CC(c1ccccc1)C1(O)c2cccc(O)c2C(=O)c2c(O)cccc21 (stereo unspecified) and stop.
Solution: 41.4 µM

Problem: Specify TGI for CC(C)N1CCCOC(c2ccc([N+](=O)[O-])cc2)O1 (stereo unspecified) and stop.
Solution: > 100 µM

Problem: Specify TGI for CSC(=S)NNC(=O)c1ccncc1 and stop.
Solution: 44 µM

Problem: Specify TGI for C=C1CC(COc2ccc3ccc(=O)oc3c2)(c2ccccc2)OC1=O (stereo unspecified) and stop.
Solution: 6.12 µM

Problem: Specify TGI for O=C(O)CCC1CCC(c2cc(F)ccc2F)(S(=O)(=O)c2ccc(Cl)cc2)CC1 (stereo unspecified) and stop.
Solution: > 100 µM

Problem: Specify TGI for COc1ccccc1CNCc1nc2ccccc2[nH]1 and stop.
Solution: > 100 µM

Problem: Specify TGI for CN(CCO)c1nc2c(c(=O)[nH]1)CNCC2 and stop.
Solution: > 100 µM

Problem: Specify TGI for CO[C@H](c1ccccc1)[C@H](O)[C@](O)(c1ccccc1)P(=O)(OC)OC and stop.
Solution: > 100 µM

Problem: Specify TGI for CCn1c(SCC(=O)NNC(=S)Nc2ccc(F)cc2)nc2ccccc2c1=O and stop.
Solution: > 100 µM

Problem: Specify TGI for COC(=O)/C(=C/CC(N=C(c1ccccc1)c1ccccc1)C(=O)OC)N=C(c1ccccc1)c1ccccc1 (stereo unspecified) and stop.
Solution: > 100 µM

Problem: Specify TGI for C[C@@H]1OC2(O)[C@@H]3CCCN3C(=O)N(Cc3ccccc3)N2C1=O (stereo partly specified) and stop.
Solution: > 100 µM

Problem: Specify TGI for CN(C)CCN1C(=O)c2ccccc2C1(O)c1ccc(Cl)cc1 (stereo unspecified) and stop.
Solution: > 100 µM

Problem: Specify TGI for COc1c(O)cc2c(c1O)C1O[C@H](CO)C(O)[C@H](O)[C@H]1OC2=O (stereo partly specified) and stop.
Solution: > 100 µM

Problem: Specify TGI for CC(CCC(=O)O)[C@H]1CCC2[C@H]3C(CC(=O)[C@@]21C)[C@@]1(C)CCC(O)C[C@H]1C[C@@H]3O (stereo partly specified) and stop.
Solution: > 100 µM

Problem: Specify TGI for COC(=O)/C(C#N)=C(\Nc1ccccc1)N1CCCCC1 and stop.
Solution: > 100 µM
